Target: T1, bovine serum albumin (bovine, UniProt P02769 25-607)
T1 construct: also called BSA
T1 sequence (P02769 25-607 limits assumed): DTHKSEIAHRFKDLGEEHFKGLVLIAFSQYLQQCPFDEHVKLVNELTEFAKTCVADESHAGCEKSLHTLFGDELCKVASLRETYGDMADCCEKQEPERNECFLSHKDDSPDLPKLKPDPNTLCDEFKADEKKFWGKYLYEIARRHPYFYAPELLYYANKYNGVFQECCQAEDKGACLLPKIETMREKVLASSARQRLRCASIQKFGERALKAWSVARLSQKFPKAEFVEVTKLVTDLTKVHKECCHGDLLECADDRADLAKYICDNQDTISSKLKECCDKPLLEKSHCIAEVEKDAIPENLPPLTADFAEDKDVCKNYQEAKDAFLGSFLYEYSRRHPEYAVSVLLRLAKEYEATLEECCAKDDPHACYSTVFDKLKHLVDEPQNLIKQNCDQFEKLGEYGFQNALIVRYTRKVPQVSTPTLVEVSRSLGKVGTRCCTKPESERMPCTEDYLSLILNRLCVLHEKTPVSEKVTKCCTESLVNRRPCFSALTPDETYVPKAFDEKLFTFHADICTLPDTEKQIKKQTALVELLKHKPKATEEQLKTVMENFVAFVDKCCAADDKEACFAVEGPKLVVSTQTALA
Experiment: ELISA, protein coated at 10 ug/ml
RECORDED ENDPOINT: binding result

anti-LF clone LF9D (antibody, V domains shown) VH: EVQLLESGGGLVKPGGSLRLSCAASGFTFSSYAMHWVRQTPEKGLEWVSTISSIGGSTWYSDSVKGRFTISRDNSKNTLFLHMKSLRAEDTAVYYCARDFFSQVGWSTPNNWFDPWGQGTLVTVS VL: AAELTQSPSTLSASVGDRVTITCRASQGIATYLNWYQQIPGKAPKLLIYAASTLESGVPSRFSGSGSGAEFTLTISSLQPGDFATYYCQQFYSMPLTFGGGTKVEIKR :: no binding
anti-EF clone EF15A (antibody, V domains shown) VH: VQLLEESGGGVVQPGRSLRLSCTASGFTFSNYGMQWVRQAPGKRLEWVAFISYSGSNKQYADSVRGRFTISRDNSKNILYLQMNSLRSEDTAVYYCARDSHYLDYLPDAFDYWGQGTVVTVS VL: ELVMTQSPSLLSASVGDRVTITCRASQGISNYLAWFQQKPGKAPKRLIFTAYRLESGVPSRFSGSMSGTEFTLTISSLEPEDFATYYCLQHSAYPPTFGQGTKLEIKR :: no binding
anti-anthrax EF13D monoclonal antibody (IgG) (antibody, V domains shown) VH: EVQLLESGAEVKKPGSSVKVSCKVSGGTFSSFGISWVRQAPGQGLEWMGLIIPILGTANYAQKFQGRLTITADESTSTVYMELSSLRSEDTAVYYCATDPYHNWGEWDLDYWGQGTLVTVS VL: AAELTQSPSSLSASVGDRVSITCRASQSISNYLSWYQQKPGKAPQLLIYDASTLQSGVPSRFSGSGSGTDFTLTISSLQPEDFATYYCQCGYGTYPTFGGGTQVEIKR :: no binding
